# Tested on: 931267-113-T-J1-PDC KRAS spheroid with HUVEC/MSC, viability;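 also: compound exposure lasted 7 days before the readout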
# assayComment: Anticancer human tumor 931267-113-T-J1-PDC patient-derived colon adenocarcinoma cell line growth inhibition [KRAS2]
# setupConditions: second compound 1 µM; first compound 0.1 µM; active compounds read low
Define the label as met when viability, T/C is strictly less than 70% and as not met in all remaining cases.

Completed entries (count: 5):
compound	testedOn	label
CC1COCCN1c1cc(-c2ccnn2C)c2ccnc(-c3ccn[nH]3)c2n1 (stereo unspecified) + C=CC(=O)N1CCN(c2nc(=O)n(-c3c(C)ccnc3C(C)C)c3nc(-c4c(O)cccc4F)c(F)cc23)C(C)C1	931267-113-T-J1-PDC KRAS spheroid with HUVEC/MSC, viability	met
COc1cc2nccc(Oc3ccc(NC(=O)C4(C(=O)Nc5ccc(F)cc5)CC4)cc3)c2cc1OC + CC1OCC2(CCN(c3cnc(Sc4ccnc(N)c4Cl)c(N)n3)CC2)C1N	931267-113-T-J1-PDC KRAS spheroid with HUVEC/MSC, viability	not met
CC(C)n1nc(-c2ccc3oc(N)nc3c2)c2c(N)ncnc21 + C=CC(=O)N1CCN(c2nc(OCC3CCCN3C)nc3c2CCN(c2cccc4cccc(C)c24)C3)CC1CC#N	931267-113-T-J1-PDC KRAS spheroid with HUVEC/MSC, viability	met
CCNC(=O)CC1N=C(c2ccc(Cl)cc2)c2cc(OC)ccc2-n2c(C)nnc21 (stereo unspecified) + COc1cc2nc(C)nc(NC(C)c3cc(N)cc(C(F)(F)F)c3)c2cc1OC1CCOC1	931267-113-T-J1-PDC KRAS spheroid with HUVEC/MSC, viability	not met
CC(C)NCC(C(=O)N1CCN(c2ncnc3c2C(C)CC3O)CC1)c1ccc(Cl)cc1 (stereo unspecified) + C=CC(=O)N1CCN(c2nc(=O)n(-c3c(C)ccnc3C(C)C)c3nc(-c4c(O)cccc4F)c(F)cc23)C(C)C1	931267-113-T-J1-PDC KRAS spheroid with HUVEC/MSC, viability	not met

Q) Consider CC1(C)CCC(CN2CCN(c3ccc(C(=O)NS(=O)(=O)c4ccc(NCC5CCOCC5)c([N+](=O)[O-])c4)c(Oc4cnc5[nH]ccc5c4)c3)CC2)=C(c2ccc(Cl)cc2)C1 + CNCc1ccccc1-c1csc(C(C)Nc2nc(C)nc3cc(OC)c(OC)cc23)c1 . Does its viability, T/C lie strictly below 70%?
A) met
